SYSTEM UNDER TEST: D(2) dopamine receptor (Homo sapiens) (UniProt P14416)
Sequence (P14416 whole entry): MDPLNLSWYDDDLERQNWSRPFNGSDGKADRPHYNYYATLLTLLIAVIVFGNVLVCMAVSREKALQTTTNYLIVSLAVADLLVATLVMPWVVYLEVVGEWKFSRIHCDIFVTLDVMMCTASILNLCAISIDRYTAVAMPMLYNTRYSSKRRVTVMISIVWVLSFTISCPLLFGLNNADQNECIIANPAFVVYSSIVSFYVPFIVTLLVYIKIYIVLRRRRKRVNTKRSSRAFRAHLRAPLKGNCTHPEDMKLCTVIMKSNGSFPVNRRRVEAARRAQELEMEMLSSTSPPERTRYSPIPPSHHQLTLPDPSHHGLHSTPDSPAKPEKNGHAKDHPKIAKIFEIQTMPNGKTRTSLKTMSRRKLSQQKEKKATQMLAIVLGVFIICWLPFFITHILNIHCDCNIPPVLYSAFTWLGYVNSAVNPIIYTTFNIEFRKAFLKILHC
ASSAY SUMMARY: Negative allosteric modulation of recombinant human D2L receptor expressed in Flp-In CHO cells assessed as inhibition of dopamine-induced reduction in forskolin stimulated cAMP accumulation preincubated for 30 mins followed by forskolin stimulation and measured after 30 mins by BRET assay
Type: functional, cell-based
MEASURED ATTRIBUTE: Kb (µM)
Give bare numbers, in µM.

- CPD SMILES: "CCN(CC)c1nc(CCCCN2CCOCC2)nc2sc3c(c12)CCCC3"
  MEASURED ATTRIBUTE: "Kb"
  RECORDED MEASUREMENT: 1.77
- CPD SMILES: "COc1cccc(Nc2nc(CN3CCOCC3)nc3sc4c(c23)CCCC4)c1"
  MEASURED ATTRIBUTE: "Kb"
  RECORDED MEASUREMENT: 8.02
- CPD SMILES: "FC(F)(F)c1cccc(Nc2nc(CC3CCOCC3)nc3sc4c(c23)CCCC4)c1"
  MEASURED ATTRIBUTE: "Kb"
  RECORDED MEASUREMENT: 0.622
- CPD SMILES: "FC(F)(F)c1cccc(Nc2nc(CCCCN3CCOCC3)nc3sc4c(c23)CCCC4)c1"
  MEASURED ATTRIBUTE: "Kb"
  RECORDED MEASUREMENT: 0.611

Provide the reported Kb of each entry below, same order.
1. CCN(CC)c1ncnc2sccc12
2. CCN(CC)c1nc(CCCCN2CCOCC2)nc2sccc12
3. CN(C)c1nc(CN2CCOCC2)nc2sc(Cc3ccccc3)cc12
4. FC(F)(F)c1cccc(Nc2nc(CN3CCOCC3)nc3sc4c(c23)CCCC4)c1

Result:
1. 4.6
2. 1.3
3. 4.9
4. 3.87

Please state Kb for every compound in the list that follows.
1. CCN(CC)c1nc(CN2CCOCC2)nc2sc3c(c12)CCCC3
2. FC(F)(F)c1cccc(Nc2nc(CCN3CCOCC3)nc3sc4c(c23)CCCC4)c1
3. FC(F)(F)c1cccc(Nc2nc(CCCCN3CCOCC3)nc3sccc23)c1
4. c1ccc(Nc2nc(CN3CCOCC3)nc3sc4c(c23)CCCC4)cc1

Result:
0.662
0.981
1.4
7.46

Fill in Kb for each of the 6 compounds listed.
1. FC(F)(F)c1cccc(Nc2ncnc3sc4c(c23)CCCC4)c1
2. CCN(CC)c1ncnc2sc3c(c12)CCCC3
3. Oc1cccc(Nc2nc(CN3CCOCC3)nc3sc4c(c23)CCCC4)c1
4. FC(F)(F)c1cccc(Nc2nc(CN3CCCCC3)nc3sc4c(c23)CCCC4)c1
5. FC(F)(F)c1cccc(Nc2nc(CN3CCOCC3)nc3sc4c(c23)CCC4)c1
6. CCN(CC)c1nc(CN2CCOCC2)nc2sccc12

Result:
25.4
1.92
2.81
6.98
11.4
3.13

###

SYSTEM UNDER TEST: D(2) dopamine receptor (Homo sapiens) (UniProt P14416)
ASSAY SUMMARY: Negative allosteric modulation of recombinant human D2L receptor expressed in Flp-In CHO cells assessed as inhibition of dopamine-induced reduction in forskolin stimulated cAMP accumulation by measuring modulation of dopamine efficacy preincubated for 30 mins followed by forskolin stimulation and measured after 30 mins by BRET assay
Type: functional, cell-based
Rule: Activity below 0.1 gives t. Equal to or above 0.1 gives f.

- CPD SMILES: "FC(F)(F)c1cccc(Nc2nc(CN3CCOCC3)nc3sc4c(c23)CCCC4)c1"
  ASSIGNED LABEL: "f"
- CPD SMILES: "CN(C)c1nc(CN2CCOCC2)nc2sc(Cc3ccccc3)cc12"
  ASSIGNED LABEL: "f"
- CPD SMILES: "COc1cccc(Nc2nc(CN3CCOCC3)nc3sc4c(c23)CCCC4)c1"
  ASSIGNED LABEL: "f"
- CPD SMILES: "FC(F)(F)c1cccc(Nc2nc(CN3CCCCC3)nc3sc4c(c23)CCCC4)c1"
  ASSIGNED LABEL: "f"
- CPD SMILES: "FC(F)(F)c1cccc(Nc2nc(CC3CCOCC3)nc3sc4c(c23)CCCC4)c1"
  ASSIGNED LABEL: "f"
- CPD SMILES: "c1ccc(Nc2nc(CN3CCOCC3)nc3sc4c(c23)CCCC4)cc1"
  ASSIGNED LABEL: "f"

Q: Identify whether the compound Fc1cccc(Nc2nc(CN3CCOCC3)nc3sc4c(c23)CCCC4)c1 records Activity below 0.1.
Result: f

Q: How about CCN(CC)c1ncnc2sccc12 ?
Result: f

Q: CCN(CC)c1nc(CCCCN2CCOCC2)nc2sccc12 ?
Result: f

###

SYSTEM UNDER TEST: D(3) dopamine receptor (Homo sapiens)
ASSAY SUMMARY: Displacement of [3H]Raclopride from recombinant D3 receptor (unknown origin) expressed in Flp-In CHO cell membranes after 2 to 3 hrs by microbeta counting method
Kindly state Kb for each of the entries shown.
Returns: string containing the number followed by the unit.

Worked cases, answers included:
- CPD SMILES: "CCN(CC)c1nc(CCCCN2CCOCC2)nc2sc3c(c12)CCCC3"
  SYSTEM UNDER TEST: "D(3) dopamine receptor (Homo sapiens)"
  RECORDED MEASUREMENT: "10 µM"
- CPD SMILES: "CCN(CC)c1nc(CCCCN2CCOCC2)nc2sccc12"
  SYSTEM UNDER TEST: "D(3) dopamine receptor (Homo sapiens)"
  RECORDED MEASUREMENT: "0.9 µM"
- CPD SMILES: "CCN(CC)c1nc(CN2CCOCC2)nc2sccc12"
  SYSTEM UNDER TEST: "D(3) dopamine receptor (Homo sapiens)"
  RECORDED MEASUREMENT: "11 µM"
- CPD SMILES: "FC(F)(F)c1cccc(Nc2ncnc3sc4c(c23)CCCC4)c1"
  SYSTEM UNDER TEST: "D(3) dopamine receptor (Homo sapiens)"
  RECORDED MEASUREMENT: "0.2 µM"
- CPD SMILES: "FC(F)(F)c1cccc(Nc2nc(CN3CCOCC3)nc3sc4c(c23)CCCC4)c1"
  SYSTEM UNDER TEST: "D(3) dopamine receptor (Homo sapiens)"
  RECORDED MEASUREMENT: "0.3 µM"

Q: What Kb value was documented for this compound, FC(F)(F)c1cccc(Nc2nc(CC3CCOCC3)nc3sc4c(c23)CCCC4)c1 ?
Result: 52 µM

###

Please go through the items and note down their log(activity).
SYSTEM UNDER TEST: UniProtKB P14416
ASSAY SUMMARY: Negative allosteric modulation of recombinant human D2L receptor expressed in Flp-In CHO cells assessed as inhibition of dopamine-induced reduction in forskolin stimulated cAMP accumulation by measuring co-operativity factor preincubated for 30 mins followed by forskolin stimulation and measured after 30 mins by BRET assay
Assay type: functional, cell-based
Answers are plain numbers.

The examples below pair each entry with its known result.
- CPD SMILES: "CCN(CC)c1nc(CN2CCOCC2)nc2sc3c(c12)CCCC3"
  SYSTEM UNDER TEST: "UniProtKB P14416"
  log(activity): -0.17
- CPD SMILES: "FC(F)(F)c1cccc(Nc2ncnc3sc4c(c23)CCCC4)c1"
  SYSTEM UNDER TEST: "UniProtKB P14416"
  log(activity): 0
- CPD SMILES: "FC(F)(F)c1cccc(Nc2nc(CN3CCOCC3)nc3sc(C4CCCCC4)cc23)c1"
  SYSTEM UNDER TEST: "UniProtKB P14416"
  log(activity): -0.9
- CPD SMILES: "c1ccc(Nc2nc(CN3CCOCC3)nc3sc4c(c23)CCCC4)cc1"
  SYSTEM UNDER TEST: "UniProtKB P14416"
  log(activity): 0
- CPD SMILES: "FC(F)(F)c1cccc(Nc2nc(CC3CCOCC3)nc3sc4c(c23)CCCC4)c1"
  SYSTEM UNDER TEST: "UniProtKB P14416"
  log(activity): -0.89

Now consider a different compound.
Q: Endpoint output: log(activity) of CCN(CC)c1ncnc2sccc12 . Value?
Result: 0

###

What log(activity) was measured for each of the following?
SYSTEM UNDER TEST: UniProtKB P14416
ASSAY SUMMARY: Negative allosteric modulation of recombinant human D2L receptor expressed in Flp-In CHO cells assessed as inhibition of dopamine-induced reduction in forskolin stimulated cAMP accumulation by measuring modulation of dopamine efficacy preincubated for 30 mins followed by forskolin stimulation and measured after 30 mins by BRET assay
Assay type: functional, cell-based
Answers are plain numbers.

Answered cases to consult:
- CPD SMILES: "FC(F)(F)c1cccc(Nc2nc(CCCCN3CCOCC3)nc3sccc23)c1"
  RECORDED MEASUREMENT: -1.21
- CPD SMILES: "c1ccc(Nc2nc(CN3CCOCC3)nc3sc4c(c23)CCCC4)cc1"
  RECORDED MEASUREMENT: -0.95
- CPD SMILES: "FC(F)(F)c1cccc(Nc2nc(CCCN3CCOCC3)nc3sc4c(c23)CCCC4)c1"
  RECORDED MEASUREMENT: -0.4
- CPD SMILES: "FC(F)(F)c1cccc(Nc2nc(CN3CCOCC3)nc3sc(C4CCCCC4)cc23)c1"
  RECORDED MEASUREMENT: 0
- CPD SMILES: "FC(F)(F)c1cccc(Nc2nc(CN3CCOCC3)nc3sc4c(c23)CCCC4)c1"
  RECORDED MEASUREMENT: -0.55
- CPD SMILES: "COc1cccc(Nc2nc(CN3CCOCC3)nc3sc4c(c23)CCCC4)c1"
  RECORDED MEASUREMENT: -0.53
- CPD SMILES: "CN(C)c1nc(CN2CCOCC2)nc2sc(Cc3ccccc3)cc12"
  RECORDED MEASUREMENT: -0.84
- CPD SMILES: "CCN(CC)c1nc(CCCCN2CCOCC2)nc2sccc12"
  RECORDED MEASUREMENT: -0.82
- CPD SMILES: "FC(F)(F)c1cccc(Nc2nc(CN3CCOCC3)nc3sc4c(c23)CCC4)c1"
  RECORDED MEASUREMENT: 0
- CPD SMILES: "CCN(CC)c1nc(CCCCN2CCOCC2)nc2sc3c(c12)CCCC3"
  RECORDED MEASUREMENT: 1.07

I need log(activity) for every entry listed below, if you could help.
1. FC(F)(F)c1cccc(Nc2ncnc3sccc23)c1
2. CCN(CC)c1nc(CN2CCOCC2)nc2sc3c(c12)CCCC3
3. FC(F)(F)c1cccc(Nc2nc(CCCCN3CCOCC3)nc3sc4c(c23)CCCC4)c1
4. CCN(CC)c1nc(CN2CCOCC2)nc2sccc12
5. CCN(CC)c1ncnc2sccc12

Result:
1. 0
2. -1.1
3. -1.5
4. -0.62
5. -0.89

Quick request: log(activity) for each listed item, please.
1. FC(F)(F)c1cccc(Nc2nc(CCN3CCOCC3)nc3sc4c(c23)CCCC4)c1
2. FC(F)(F)c1cccc(Nc2nc(CN3CCCCC3)nc3sc4c(c23)CCCC4)c1
3. FC(F)(F)c1cccc(Nc2ncnc3sc4c(c23)CCCC4)c1
4. Fc1cccc(Nc2nc(CN3CCOCC3)nc3sc4c(c23)CCCC4)c1
5. FC(F)(F)c1cccc(Nc2nc(CC3CCOCC3)nc3sc4c(c23)CCCC4)c1
6. Oc1cccc(Nc2nc(CN3CCOCC3)nc3sc4c(c23)CCCC4)c1
7. CCN(CC)c1ncnc2sc3c(c12)CCCC3

Result:
[0, -0.22, -1.02, -0.4, -0.63, -3, -3]
